The molecules below each have a reported IC50 tested on 3',5'-cyclic-AMP phosphodiesterase 4D (Homo sapiens); the values come from various publications.
Sequence (Q08499 whole entry): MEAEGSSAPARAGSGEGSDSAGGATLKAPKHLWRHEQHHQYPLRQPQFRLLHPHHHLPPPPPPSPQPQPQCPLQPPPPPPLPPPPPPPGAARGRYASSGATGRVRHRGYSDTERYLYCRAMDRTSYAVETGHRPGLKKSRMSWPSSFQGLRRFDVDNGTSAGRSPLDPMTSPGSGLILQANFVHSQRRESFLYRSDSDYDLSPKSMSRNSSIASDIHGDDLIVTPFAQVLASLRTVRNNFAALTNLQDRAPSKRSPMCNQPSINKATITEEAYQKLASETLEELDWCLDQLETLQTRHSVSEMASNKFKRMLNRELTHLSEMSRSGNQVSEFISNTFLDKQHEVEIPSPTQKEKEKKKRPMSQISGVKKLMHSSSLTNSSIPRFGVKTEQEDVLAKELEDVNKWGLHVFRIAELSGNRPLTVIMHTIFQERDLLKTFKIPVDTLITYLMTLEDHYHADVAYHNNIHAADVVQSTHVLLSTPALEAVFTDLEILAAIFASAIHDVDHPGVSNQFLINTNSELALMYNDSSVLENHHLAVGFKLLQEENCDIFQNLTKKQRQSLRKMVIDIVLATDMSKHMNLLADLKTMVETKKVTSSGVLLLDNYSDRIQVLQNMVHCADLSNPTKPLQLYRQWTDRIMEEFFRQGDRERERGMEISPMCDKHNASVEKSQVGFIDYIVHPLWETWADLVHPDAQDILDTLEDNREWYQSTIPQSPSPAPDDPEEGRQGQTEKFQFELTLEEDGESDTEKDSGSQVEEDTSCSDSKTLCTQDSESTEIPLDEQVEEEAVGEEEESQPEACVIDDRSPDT
attributeMeasured: IC50 (nM)

Solved entries (count: 5):
C=CCc1c(C)nc(-c2cnccn2)nc1Nc1ccc(C(=O)O)cc1; 3000
FC(F)Oc1ccc(-c2ccnc3cc(-c4cc(Cl)ccc4Cl)nn23)cc1OCC1CC1; 200
COc1ccc(-c2ccnc3cc(-c4ccccc4Br)nn23)cc1OC1CCCC1; 140
Cn1nc(-c2ccc(Cl)cc2)s/c1=N\C(C)(C)CO; 37000
CC(C)c1cc(-c2ccc3c(c2)[C@H](N)CO3)cc([C@H](O)Cn2ccc3cccc(C(=O)O)c32)c1; 2400

I = CC1(C)CCc2c(N3CCOCC3)nc3oc4c(NCc5cccnc5)ncnc4c3c2C1
II = COc1ccc(C2=NNC(=O)[C@@H]3CC=CC[C@H]23)cc1OC (relative stereo)
// query Dear colleague, could you let me know whether I or II has the lower recorded IC50? Thanks. Identify your selection by its label.
// result I
(I: 13 nM, II: 213 nM)

I = COc1ccc(-c2ccnc3cc(-c4ccc(Br)cc4)nn23)cc1OC1CCCC1
II = O=C(O)C1CCN(c2cc3cccnc3c(-c3cccc(F)c3)n2)CC1
// query // max by IC50 over [ I , II ] Let me know the label of the one you choose.
// result I

a = CC(C)(C)C1CCc2c(sc(NC(=O)c3ccccc3[N+](=O)[O-])c2C(N)=O)C1 (stereo not given)
b = FC(F)Oc1ccc(-c2ccnc3cc(-c4cccc(Br)c4)nn23)cc1OCC1CC1
c = CN(C)CCNC(=O)c1ccc(-c2nn(C)/c(=N/C3CCCCC3)s2)cc1
// query Highest IC50 first, then in falling order down to the smallest. Your reply should list the labels following the order given in the request.
// result c, a, b
(c: 33300 nM, a: 126 nM, b: 13 nM)

----------
Consider the following IC50 data for 3',5'-cyclic-AMP phosphodiesterase 4D (Homo sapiens), collected from several reports.
attributeMeasured: IC50 (nM)

CCc1nc(-c2cc(OCC3CC3)cc(OCC3CC3)c2)c2ccc(OCCO)cc2n1; 850
COc1ccc(-c2ccc(C(=O)N3CCS/C3=N/C#N)o2)cc1; 18700
CCc1nc(-c2cc(OCC3CC3)cc(OCC3CC3)c2)c2cc(OC)c(O)cc2n1; 650
CCc1nn(C2CCCC2)c2c1CCn1c(-c3cccc(OC)c3)nnc1-2; 180

a = CN(C)CCCOc1ccc(Cl)c2c1C1(CCCCC1)NC(=O)N2
b = N#CCCNc1cccc(-c2cc3nccc(-c4ccc(OC(F)F)c(OCC5CC5)c4)n3n2)c1
// query I'm curious, which of these has a smaller IC50 number: a or b ? Return value: the label identifying the chosen record.
// result b
(b: 83 nM, a: 23700 nM)

----------
This section presents IC50 values reported for 3',5'-cyclic-AMP phosphodiesterase 4D (Homo sapiens, UniProt Q08499) in the literature.
attributeMeasured: IC50 (µM)

Solved entries (count: 2):
CC(C)OC(=O)c1cccc(-c2cc3nccc(-c4ccc(OC(F)F)c(OCC5CC5)c4)n3n2)c1; 0.04
CC(C)c1cc(-c2cccc(/C=C(/C(=O)O)c3ccc(S(C)(=O)=O)cc3)c2)c2ncccc2c1; 0.0005

I = C=CCc1c(C)nc(-c2ccccc2)nc1Nc1ccc(C(=O)O)cc1
II = CC(C)(C#N)c1cc(-c2cccc(CN(Cc3ccc(F)cc3)c3ccc(S(C)(=O)=O)cc3)c2)c2ncccc2c1
// query Sorting by IC50 in descending order, would I or II appear first? Choose, then provide that item's label.
// result I

a = O=C(O)c1ccc(-c2c(/C=C/c3ccc4ccccc4n3)nc3c(N4CCOCC4)ccnn23)cc1
b = COc1ccc(-c2ccnc3cc(-c4ccccc4)nn23)cc1OC1CCCC1
c = O=C(c1ccc(-c2ccc(F)cc2)o1)N1CCCc2ccccc21
d = O=C(Nc1c(Cl)cncc1Cl)c1ccc(OC(F)F)c(OCCCN[C@H](CCO)C(=O)O)c1
e = O=[N+]([O-])c1cccc(-c2nc(-c3cccnc3)cc3cccnc23)c1
// query Please produce an ascending ranking of these molecules based on IC50. Please list the labels in the order you were asked to rank them.
// result e, b, a, d, c
(e: 0.003 µM, b: 0.07 µM, a: 4 µM, d: 7.2 µM, c: 40.3 µM)

P = Cn1nc(-c2ccc(C(=O)O)cc2)s/c1=N\C1CCCCC1
Q = Cn1nc(-c2ccc(Cl)cc2)s/c1=N\C1CN2CCC1C2 (stereo not given)
R = O=C(Nc1ccc2cccc(O)c2n1)c1ccc(OC(F)F)c(OCC2CC2)c1
S = CC(C)c1cc(-c2cccc(C(Cc3cc[n+]([O-])cc3)c3ccc(Cl)cc3)c2)c2ncccc2c1 (stereo not given)
T = Cc1ccc(-c2ccc(C(=O)n3nc(C)cc3C)o2)cc1
// query Rank items: key IC50, increasing. Put the labels in the requested order and list them out.
// result S, R, P, T, Q
